These entries and their values trace back to patent US20240239752A1.

Here, each record is paired with measured IC50 data.
Target: recombinant human KLK5 (Homo sapiens, UniProt Q9Y337)
Sequence (Q9Y337 23-293): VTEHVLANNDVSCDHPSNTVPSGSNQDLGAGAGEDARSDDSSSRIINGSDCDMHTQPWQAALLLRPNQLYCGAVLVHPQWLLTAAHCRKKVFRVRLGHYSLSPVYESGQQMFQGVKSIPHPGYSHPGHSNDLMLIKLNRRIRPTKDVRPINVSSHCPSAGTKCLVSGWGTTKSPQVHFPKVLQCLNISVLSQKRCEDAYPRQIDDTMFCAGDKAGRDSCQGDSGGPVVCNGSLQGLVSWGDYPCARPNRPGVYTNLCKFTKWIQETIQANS
Test: Kallikrein (KLK) 5 enzymatic assay (Boc-VPR-AMC fluorogenic substrate)
Conditions: recombinant human KLK5 0.1 μg/well, Boc-VPR-AMC 100 μM, pH 7.5, room temperature, 1% DMSO; tested a minimum of three times
Description: […] The reaction rate for enzyme alone was compared to the reaction rate of enzyme in the presence of compound and the percent inhibition was calculated as shown below: […]

molecule | IC50
CC(C)n1nc(COc2ccccc2CC(=O)O)c2cc(-c3ccc4nc(N)ccc4c3)ccc21 [Compound 35c] | > 10000 nM
Cc1ccc2c(N)nccc2c1-c1ccc2c(c1)c(COc1ccccc1CC(=O)O)nn2C(C)C [Compound 78d] | 1000 to 10000 nM
COc1c(C(=N)N)cccc1-c1ccc2c(c1)c(COc1ccccc1CC(=O)O)nn2C1CCCC1 [Compound 263d] | < 1000 nM
Nc1nccc2ccc(-c3ccc4c(c3)c(COc3ccc(F)cc3CC(=O)O)nn4C3CCC3)cc12 [Compound 166d] | < 1000 nM
COC(=O)N1CCC2(CC1)CC(Oc1cccc(C)c1CC(=O)O)c1cc(-c3ccc4ccnc(N)c4c3)ccc12 (stereo not shown) [Compound 381e] | < 1000 nM
COc1c(C(=N)N)cccc1-c1ccc2c(c1)c(COc1ccccc1CC(=O)O)nn2C1CCOC1 (stereo not shown) [Compound 264d] | < 1000 nM
N=C(N)c1cccc(-c2cc3c(COc4ccccc4C(O)C(=O)O)cccc3o2)c1 (stereo not shown) [Compound 268d] | 1000 to 10000 nM
Nc1nccc2ccc(-c3ccc4[nH]nc(COc5ccccc5CC(=O)O)c4c3)cc12 [Compound 98a] | < 1000 nM
CC(C)n1nc(COc2ccccc2CC(=O)O)c2cc(-c3cccc4c3OCCC4N)ccc21 (stereo not shown) [Compound 213c] | > 10000 nM
N=C(N)c1cccc(-c2ccc3c(c2)c(COc2ccccc2CC(=O)O)nn3C2CC2)c1 [Compound 59d] | < 1000 nM
CCOC(=O)Cc1ccccc1OCc1nn(CCF)c2ccc(Br)cc12 [Compound 182c] | < 1000 nM
COCCN1CC(n2nc(COc3ccccc3CC(=O)O)c3cc(-c4ccc5ccnc(N)c5c4)ccc32)C1 [Compound 145b] | < 1000 nM
CC(C)n1nc(COc2ccccc2CC(=O)O)c2cc(-c3ccc4cc(N)ncc4c3)ccc21 [Compound 34c] | > 10000 nM
Nc1nccc2ccc(-c3ccc4c(c3)c(COc3ccccc3CC(=O)O)nn4-c3ccccc3)cc12 [Compound 201c] | < 1000 nM
Nc1nccc2c(-c3ccc4c(c3)c(COc3ccccc3CC(=O)O)nn4[C@H]3CCOC3)cccc12 [Compound 243h] | < 1000 nM
Nc1nccc2c(-c3ccc4c(c3)c(COc3c(CC(=O)O)cccc3C(=O)O)nn4C3CCC3)cccc12 [Compound 177a] | 1000 to 10000 nM

---

Biological target: recombinant human KLK5 (Homo sapiens, UniProt Q9Y337)
Assay: Kallikrein (KLK) 5 enzymatic assay (Boc-VPR-AMC fluorogenic substrate)
Conditions: recombinant human KLK5 0.1 μg/well, Boc-VPR-AMC 100 μM, pH 7.5, room temperature, 1% DMSO; tested a minimum of three times
pIC50: −log10 of the molar value.
Here, each record is paired with measured pIC50 data.
quantity-name: pIC50

molecule | quantity-name | assay-result
Nc1nccc2c(-c3cc4c(COc5ccccc5CC(=O)O)cccc4o3)cccc12 [Compound 232b] | pIC50 | < 5.00
Nc1nccc2c(-c3cc(C4CC4)c4c(c3)C(Oc3ccccc3CC(=O)O)CC4)cccc12 (stereo not shown) [Compound 257b] | pIC50 | > 6.00
CC(C)n1nc(COc2ccccc2CC(=O)O)c2cc(-c3ccc4cccc(N)c4c3)ccc21 [Compound 70c] | pIC50 | < 5.00
CCOC(=O)N1CCC2(CC1)CC(Oc1cccc(C)c1CC(=O)O)c1cc(-c3cccc4c(N)nccc34)ccc12 (stereo not shown) [Compound 405b] | pIC50 | > 6.00

---

Target: recombinant human KLK5 (Homo sapiens, UniProt Q9Y337)
Sequence (Q9Y337 23-293): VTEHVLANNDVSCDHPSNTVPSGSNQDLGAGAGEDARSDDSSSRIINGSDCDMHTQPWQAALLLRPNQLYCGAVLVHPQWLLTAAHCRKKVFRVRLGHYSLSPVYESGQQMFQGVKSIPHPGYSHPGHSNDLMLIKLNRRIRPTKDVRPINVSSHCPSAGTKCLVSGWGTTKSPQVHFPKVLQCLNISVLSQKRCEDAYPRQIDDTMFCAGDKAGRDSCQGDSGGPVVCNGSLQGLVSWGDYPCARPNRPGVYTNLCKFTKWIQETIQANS
Experiment: Kallikrein (KLK) 5 enzymatic assay (Boc-VPR-AMC fluorogenic substrate)
Details: recombinant human KLK5 0.1 μg/well, Boc-VPR-AMC 100 μM, pH 7.5, room temperature, 1% DMSO; tested a minimum of three times
pIC50: −log10 of the molar value.
quantity-name: pIC50

compound | tested-target | assay-result
CC(C)n1nc(COc2ccccc2CC(=O)O)c2cc(-c3ccc4c(N)noc4c3)ccc21 [Compound 49a] | recombinant human KLK5 (Homo sapiens, UniProt Q9Y337) | < 5.00
COCCC1(CCOC)CC(Oc2ccccc2CC(=O)O)c2cc(-c3cccc4c(N)nccc34)ccc21 (stereo not drawn) [Compound 447b] | recombinant human KLK5 (Homo sapiens, UniProt Q9Y337) | > 6.00
Nc1nccc2ccc(-c3ccc4nn(C5CCC5)c(COc5cc(OC(F)(F)F)ccc5CC(=O)O)c4c3)cc12 [Compound 153d] | recombinant human KLK5 (Homo sapiens, UniProt Q9Y337) | < 5.00
CCn1nc(COc2ccccc2CC(=O)O)c2cc(-c3ccc4ccnc(N)c4c3)ccc21 [Compound 179b] | recombinant human KLK5 (Homo sapiens, UniProt Q9Y337) | > 6.00
Nc1nccc2ccc(-c3ccc4nn([C@H]5CCN(CCO)C5)c(COc5ccccc5CC(=O)O)c4c3)cc12 [Compound 113h] | recombinant human KLK5 (Homo sapiens, UniProt Q9Y337) | 5.00 to 6.00
COc1ccc(CC(=O)O)c(O[C@@H]2CCc3ccc(-c4cccc5c(N)nccc45)cc32)c1 [Compound 420b] | recombinant human KLK5 (Homo sapiens, UniProt Q9Y337) | > 6.00
CCOC(=O)N1CC(n2nc3ccc(-c4cccc5c(N)nccc45)cc3c2COc2ccccc2CC(=O)O)C1 [Compound 126c] | recombinant human KLK5 (Homo sapiens, UniProt Q9Y337) | 5.00 to 6.00
CCS(=O)(=O)N1CCC(n2nc(COc3ccccc3CC(=O)O)c3cc(-c4cccc5c(N)nccc45)ccc32)C1 (stereo not drawn) [Compound 313b] | recombinant human KLK5 (Homo sapiens, UniProt Q9Y337) | > 6.00
CC(C)n1nc(COc2ccccc2CC(=O)O)c2cc(-c3ccc4ccnc(N)c4c3)ccc21 [Compound 100b] | recombinant human KLK5 (Homo sapiens, UniProt Q9Y337) | > 6.00
CC(C)(C)OC(=O)N1CCC2(CC1)C[C@@H](Oc1ccccc1CC(=O)O)c1cc(-c3ccc4ccnc(N)c4c3)ccc12 [Compound 395b] | recombinant human KLK5 (Homo sapiens, UniProt Q9Y337) | > 6.00
CC(C)n1nc(COc2ccccc2CC(=O)O)c2cc(-c3ccc4c(c3)C(O)CC4)ccc21 (stereo not drawn) [Compound 77c] | recombinant human KLK5 (Homo sapiens, UniProt Q9Y337) | < 5.00
CC(C)(C)OC(=O)NCc1cc(-c2cccc3c(N)nccc23)cc2c(COc3ccccc3CC(=O)O)nn(C3CCCCO3)c12 (stereo not drawn) [Compound 278c] | recombinant human KLK5 (Homo sapiens, UniProt Q9Y337) | 5.00 to 6.00
COc1ccc(CC(=O)O)c(OCc2nn(C(C)C)c3ccc(-c4ccc5ccnc(N)c5c4)cc23)c1 [Compound 61b] | recombinant human KLK5 (Homo sapiens, UniProt Q9Y337) | > 6.00
CC(C)n1nc(COc2ccccc2CC(=O)O)c2cc(-c3ccc4onc(N)c4c3)ccc21 [Compound 102c] | recombinant human KLK5 (Homo sapiens, UniProt Q9Y337) | 5.00 to 6.00
Cc1cccc(OC2CC3(CCN(S(C)(=O)=O)CC3)c3ccc(-c4cccc5c(N)nccc45)cc32)c1CC(=O)O (stereo not drawn) [Compound 449b] | recombinant human KLK5 (Homo sapiens, UniProt Q9Y337) | > 6.00
